tested on: larvae of the southern green stink bug (Nezara viridula); test: Nezara viridula spray test; type: in vivo; details: 96 h, application rate 100 g/ha, after 4 days, barley plants
measured.metric: mortality at 100 g/ha (%)
Numbers only, in %.

Cc1nc([C@H](C)NC(=O)c2cc(C(F)(F)F)cc(C(F)(F)F)c2)n(-c2ccc(C(=O)N3CCOCC3)cn2)n1	100
C[C@H](NC(=O)c1cc(Cl)cc(S(C)(=O)=O)c1)c1ncnn1-c1ccc(C(=O)N2CCSCC2)cn1	90
Cc1nc([C@H](C)NC(=O)c2cc(C(F)(F)F)cc(C(F)(F)F)c2)n(-c2ccc(C(=O)N3C[C@H](C)O[C@@H](C)C3)cn2)n1	100
C[C@H](NC(=O)c1cc(C(F)(F)F)cc(C(F)(F)F)c1)c1ncnn1-c1ccc(C(=O)N2CCOCC2)cn1	100
Cc1nc([C@H](C)NC(=O)c2cc(C(F)(F)F)cc(C(F)(F)F)c2)n(-c2ccc(C(=O)N3C[C@@H](C)O[C@@H](C)C3)cn2)n1	100
C[C@@H]1CN(C(=O)c2cnc(-n3ncnc3[C@H](C)NC(=O)c3cc(OC(F)(F)F)cc(C4CC4)c3)cn2)C[C@H](C)O1	90
C[C@H](NC(=O)c1cc(C(F)(F)F)cc(C(F)(F)F)c1)c1ncnn1-c1ccc(C(=O)N2C[C@H](C)O[C@@H](C)C2)cn1	100
C[C@H](NC(=O)c1cc(C(F)(F)F)cc(C(F)(F)F)c1)c1ncnn1-c1ccc(C(=O)N2CCOCC2c2ncno2)cn1 (stereo partly shown)	90

Hello, I would appreciate it if you could give mortality at 100 g/ha for each entry below.
1. Cc1nc([C@H](C)NC(=O)c2cc(Cl)cc(C(F)(F)F)c2)n(-c2ccc(C(=O)N3CC(C)OC(C)C3)cn2)n1 (stereo partly shown)
2. C[C@H](NC(=O)c1cc(Cl)cc(C(F)(F)F)c1)c1ncnn1-c1ccc(C(=O)N2CCS(=O)(=O)CC2)cn1
3. C[C@H](NC(=O)c1cc(Cl)cc(S(C)(=O)=O)c1)c1ncnn1-c1ccc(C(=O)N2C[C@H](C)O[C@@H](C)C2)cn1
4. C[C@H](NC(=O)c1cc(C(F)(F)F)cc(C(F)(F)F)c1)c1ncnn1-c1ccc(C(=O)N(C)C2COC2)cn1
5. C[C@H](NC(=O)c1cc(Cl)cc(C(F)(F)F)c1)c1ncnn1-c1ccc(C(=O)N2CCSCC2)cn1

Response line:
1: 90; 2: 100; 3: 90; 4: 100; 5: 100

* * *

tested on: larvae of the southern green stink bug (Nezara viridula); assay: Nezara viridula spray test; type: in vivo; details: 96 h, application rate 100 g/ha, after 4 days, barley plants
So I've got a bunch of molecules here, and I need their mortality at 100 g/ha values.
Give bare numbers, in %.

Observe how each entry below is paired with its result.
C[C@H](NC(=O)c1cc(Cl)cc(C(F)(F)F)c1)c1ncnn1-c1ccc(C(=O)N2CCOC[C@H]2C)cn1	90
C[C@@H]1CN(C(=O)c2ccc(-n3ncnc3[C@H](C)NC(=O)c3cc(Cl)cc(C(F)(F)F)c3)nc2)C[C@H](C)O1	90
COC1CCCN(C(=O)c2ccc(-n3ncnc3[C@H](C)NC(=O)c3cc(C(F)(F)F)cc(C(F)(F)F)c3)nc2)C1 (stereo partly drawn)	90
C[C@@H]1CN(C(=O)c2ccc(-n3ncnc3[C@H](C)NC(=O)c3cc(C(F)(F)F)cc(C(F)(F)F)c3)nc2)C[C@H](C)O1	100
CC1CN(C(=O)c2ccc(-n3ncnc3[C@H](C)NC(=O)c3cc(C(F)(F)F)cc(S(C)(=O)=O)c3)nc2)CCO1 (stereo partly drawn)	100

Next, consider the following molecule.
Prompt line: Indicate its recorded mortality at 100 g/ha; the molecule in question is Cc1nc([C@H](C)NC(=O)c2cc(C(F)(F)F)cc(C(F)(F)F)c2)n(-c2ccc(C(=O)N3CCO[C@H](C)C3)cn2)n1
Response line: 90

Origin of values: patent US20230058623A1
